From: patent US20240279302A1

- Study system: consensus OR4E2 (Homo sapiens, UniProt Q8NGC2, A48T/F285L/G158V/H228Q/I116T/I142V/I197M/I47V/L183P/M219T/M25I/M36V/Q234R/R21W/S209T/S40L/S54R/T201S/T49I/T99A/V118M/V214L)
- Construct: Flag (N); Rho tag (N); expressed in transfected cells; host or cells: HEK293
- Sequence (Q8NGC2 1-312 R21W/M25I/M36V/S40L/I47V/A48T/T49I/S54R/T99A/I116T/V118M/I142V/G158V/L183P/I197M/T201S/S209T/V214L/M219T/H228Q/Q234R/F285L limits assumed): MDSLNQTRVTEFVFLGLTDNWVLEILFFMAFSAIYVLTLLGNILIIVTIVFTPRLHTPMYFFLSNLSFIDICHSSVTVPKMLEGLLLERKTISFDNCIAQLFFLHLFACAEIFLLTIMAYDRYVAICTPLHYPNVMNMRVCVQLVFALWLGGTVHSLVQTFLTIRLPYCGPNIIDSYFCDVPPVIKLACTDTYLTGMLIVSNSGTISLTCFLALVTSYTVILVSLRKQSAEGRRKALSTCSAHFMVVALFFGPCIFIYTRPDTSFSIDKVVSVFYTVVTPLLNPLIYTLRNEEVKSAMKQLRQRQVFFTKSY
- Assay explanation: Luciferase assay, sulfur compounds
- Format: cell-based
- Recorded conditions: in the presence of a copper ion
- Procedure: A reaction solution as to each consensus olfactory receptor prepared in Examples described above was prepared according to the composition shown in Table 4, left standing for 20 minutes in a clean bench, and then added to each well of a 96-well plate (Becton, Dickinson and Company). The original olfactory receptor was used as to OR4S2. Composition shown in Table 20 was used as to OR11H2 and OR4E2. […]
Measured metric: dose dependence of the response of consensus OR4E2

CS :: dose-dependent response
CSSC [dimethyl disulfide] :: dose-dependent response
CSSSC [dimethyl trisulfide] :: dose-dependent response
